# Assay Text: Half life in rat at 1 mg/kg, iv
# Format: ADME, organism-based
# Conditions Used: in vivo
Measured Property: half-life (min)
Only the number, expressed in min, is required.

# query: half-life of entry CCOC(=O)[C@@H]1CC2(CCN(c3cc(O[C@H](c4ccc(Cl)cc4-n4ccc(C)n4)C(F)(F)F)nc(N)n3)CC2)CN1
24

====

# Assay Text: Cmax in rat at 25 mg/kg, po
# Assay type: ADME, organism-based
# Design: dose 25 mg/kg, route oral
# Conditions Used: in vivo
Measured Property: Cmax (µg/mL)
Return type: number; implicit unit µg/mL.

Any idea what Cmax was measured for CCOC(=O)[C@@H]1CC2(CCN(c3cc(O[C@H](c4ccc(Cl)cc4-n4ccc(C)n4)C(F)(F)F)nc(N)n3)CC2)CN1 ?
0.249

====

# Assay Text: AUC(0 to last) in rat at 25 mg/kg, po
# Type: ADME, organism-based
# Set-up: dose 25 mg/kg, time 0 - last, route oral
# Conditions Used: in vivo
Measured Property: AUC(0-t) (ng·h/mL)
Supply the numeric figure in ng·h/mL, leaving out any unit text.

Requested field: AUC(0-t). Item: CCOC(=O)[C@@H]1CC2(CCN(c3cc(O[C@H](c4ccc(Cl)cc4-n4ccc(C)n4)C(F)(F)F)nc(N)n3)CC2)CN1
140

====

# Assay Text: Volume of distribution at steady state in rat at 1 mg/kg, iv
# Type: ADME, organism-based
# Conditions Used: in vivo, read-out: Vdss
Measured Property: Vd (L/kg)
Report as a plain number; the unit L/kg is understood.

Need Vd, item CCOC(=O)[C@@H]1CC2(CCN(c3cc(O[C@H](c4ccc(Cl)cc4-n4ccc(C)n4)C(F)(F)F)nc(N)n3)CC2)CN1
3.1
